test system: TK-10 renal; assay: NCI tumour cell line growth inhibition, 48 h
Listed here are molecules together with their documented TGI.

Example molecules with recorded TGI:
| MOLECULE | ENDPOINT NAME | REPORTED MEASUREMENT |
| --- | --- | --- |
| O=c1[nH]c2cc3[nH]c4ncccc4c(=O)c3cc2[nH]1 | TGI | > 10 µM |
| COC(=O)C1=C(C(=O)OC)SC(=C(Cl)C(=S)Sc2ccccc2N)S1 | TGI | 64.3 µM |
| Cc1ccc(SC(=O)N2C(=S)NC(=NC3CCCCC3)C23CCCCC3)cc1 | TGI | > 100 µM |
| OCC1OC(n2cnc3c(/C=C(/O)c4ccccc4)ncnc32)C(O)C1O (stereo not given) | TGI | 13.5 µM |

Sample Cc1ccc(S(=O)(=O)N=Nc2c(O)[nH]c3c(Cl)cc(Cl)cc23)cc1 — what was its TGI?
> 100 µM

Sample Nc1cc(N2CCCC2)nc(=O)n1Cc1ccccc1 — what was its TGI?
> 100 µM

Sample Cc1cc(C)n(CN(Cn2nc(C)cc2C)C2CCCCC2)n1 — what was its TGI?
> 100 µM

Sample Oc1ccc(CCc2cc(O)cc(O)c2)cc1 — what was its TGI?
> 100 µM

Sample COc1ccc(/C=C2\N=C(c3ccccc3)N(C3Nc4cc5c(cc4S3)NC(N3C(=O)/C(=C/c4ccc(OC)cc4)N=C3c3ccccc3)S5)C2=O)cc1 (stereo not given) — what was its TGI?
> 100 µM

Sample CCN(CCNc1ccc(C)c2sc3ccccc3c(=O)c12)CC(C)(C)O — what was its TGI?
33.7 µM

Sample O=Cc1ccc(-c2cccs2)s1 — what was its TGI?
11.7 µM

Sample O=C1C2Cc3ccccc3CN2C(=O)N1CCN1CCCC1 (stereo not given) — what was its TGI?
> 100 µM

Sample O=C(NCc1ccc(Cl)cc1)c1cc2sccc2nc1C(F)(F)F — what was its TGI?
> 100 µM

Sample c1ccc2c(c1)nc1n2CCSC1 — what was its TGI?
> 100 µM

Sample COc1ccc(Cn2c(Cl)c(/C=C3/C(=O)Nc4ccccc43)c3cc(OC)c(C)cc32)cc1 — what was its TGI?
> 100 µM

Sample Cc1c2c(OCCCCN3CCN(c4ncccn4)CC3)nn(C)c(=O)c2c(C)n1-c1ccccc1 — what was its TGI?
33.5 µM

Sample CC1(C)Oc2ccc(NC(=O)CCC(N)C(=O)O)cc2O1 (stereo not given) — what was its TGI?
> 100 µM
